test: yeast display, Sf9 membrane polyspecificity reagent, FACS + sequencing; frameworks hold sequencing errors

RESIDUE_STRING	polyreactivity (PSR sort gate)
QVQLVESGGGLVQAGGSLRLSCAASGRIFIYNAMGWYRQAPGKERELVAAISSGGSTYYADSVKGRFTISRDNANNTVYLQMNSLKAEDTAVYYCAAPRGHGKYYSWGQGTQVTVSS	high polyreactivity
QVQLVESGGGLVQAGGSLRLSCAASGRILYFYIGWYRQAPGTEREFVADISSTTSTYYADSVKGRFTISRDNAKNTVYLQMKSLKPEDTAVYYCAAPGDGYAYPIVWYGYSGYYYWGQGTQVTVSS	low polyreactivity
QVQLHESGGGLVQAGGSLRLSCAASGSISAVGAMGWNRQPPGKEREFAASVNWGTNTNYADSVKGRFTFSRDNAKNTLYLQMNSLKPEDTGVYYCAVLPDWETRHDYWGHGTQVTVSS	low polyreactivity
QVQLVESGGGLVQAGGSLRLSCAASGSTISSYAMGWYRPAPGKERELVAANTSGGSTYYADSLKGRFTISRDNAKNSVSLQMNSLKPEDTAVYYCDLGSTTMDYWGQGTQVTVSS	low polyreactivity
QVQLVESGGGLVQAGGSLRLSCASSGRILYLNAMGWYRQAPGKERELVAAITLRAGSTRYADSVKGRFTISRDNAKNTVYLQMNSLKPEDTAVYYCAVAYYRNRMDYWVQGTQVTVSS	high polyreactivity
QVQLVESGGGLVQAGGSLRLICAASVSIFTKYAMGWYRQAPGKERELVADITRSGGSTYYADSVKGRFTISRDNAKNTVYLQMNSLKPEDTAVYYCAVDPVRYPYSYDYWGQGTQVTVSS	high polyreactivity
QVQLVESGGGLVQAGGSLRLSCAASGSIFDDYAMGWYRQAPGKERELVAAISWSGGRTYYADSVKGRFTISRDNAKNTVYLQMNSLKPEDTAVYYCAASTGVRSRRYYYWGQGTQVTVSS	low polyreactivity
QVQLVESGGGLVQAGGSIRLSCAASGSTFGGNAMGWYRQAPGKERELVAAITGTGGRTFYADSVKGRFTISRDNAKNTVYLQMNSLKPEDTAVYFCAADSYIYSVNYWGQGTQVTVSS	low polyreactivity
